- measurementProtocol: Pharmacokinetic profile, IV and oral (Assay 16)
- Assay type: in vivo
- conditionDetails: rat, plasma, iv, 2 mg/kg, IV, individual rats, read-out: Cltotal (mL/min/Kg), total plasma clearance
endpointLabel: clearance (mL/min/kg)

* CN(C)Cc1ccc2c(Cl)cc(Cl)c(O)c2n1.Cl | 91

====

- measurementProtocol: Pharmacokinetic profile, IV and oral (Assay 16)
- Type: in vivo
- conditionDetails: rat, plasma, iv, 2 mg/kg, individual rats
endpointLabel: half-life (min)

• CN(C)Cc1ccc2c(Cl)cc(Cl)c(O)c2n1.Cl [compound 1033] = 52.2

====

- measurementProtocol: Pharmacokinetic profile, IV and oral (Assay 16)
- Assay type: in vivo
- conditionDetails: rat, plasma, po, 30 mg/kg, PO 30 mg/Kg, Mean ± SD, read-out: Tmax (converted)
endpointLabel: Tmax (min)

• O=C(NCCc1c[nH]cn1)c1ccc2c(Cl)cc(Cl)c(O)c2n1 = 45
• Cn1cnc(CCNC(=O)c2ccc3c(Cl)cc(Cl)c(O)c3n2)c1 = 82.5
• CCNCc1ccc2c(Cl)cc(Cl)c(O)c2n1.Cl = 45
• CN(C)Cc1ccc2c(Cl)cc(Cl)c(O)c2n1.Cl = 52.5

The values you see were collected from patent US9302993B2.
